# Test system: KM20L2 colon
# experiment.notes: NCI tumour cell line growth inhibition, 48 h
The entries below come with measured TGI values attached.

Record excerpt, results attached:
> print(dat)
                                   compound   target.desc  measurement
1  CN(C)CC1CCC(CN(C)C)C1=O (centres undefined)  KM20L2 colon        38 µM
2  O=C(/C=C/c1ccccc1)c1ccc(NCc2nc3ccccc3[nH]2)cc1  KM20L2 colon      9.06 µM
3  CCC(=O)Nc1nc2c(ncn2C2OC(COC(=O)CC)C(OC(=O)CC)C2OC(=O)CC)c(=O)[nH]1 (centres undefined)  KM20L2 colon     > 100 µM
4  Cc1nc(C(N)=S)sc1C(=O)/C=C/c1c(O)ccc2ccccc12  KM20L2 colon     > 100 µM
5        O=c1oc2ccccc2[n+]([O-])c1-c1ccccc1  KM20L2 colon     > 100 µM

Task: Which TGI is listed for COc1ccc(C(=O)NCCN(C)C)c2nc3ccccc3nc12 ?
Result: 26.5 µM

Task: Quick check: TGI of CCCCN(CCCC)C(=O)/C(CC(=O)c1cccc2ccccc12)=N\NC(=O)c1cc2ccccc2cc1O ?
Result: 51.3 µM

Task: // returns reported TGI for input C/C(=N\NC(=O)CC#N)c1c(O)cc(C)oc1=O
Result: > 100 µM

----------
# TGI listing for each entry below
# System: OVCAR-8 ovarian
# experiment.notes: NCI tumour cell line growth inhibition, 48 h

Example compounds with recorded TGI:
compound	TGI
c1c2c(cc(-n3nnc4c3CCCCCC4)c1-n1nnc3c1CCCCCC3)CCCCCC2	38.7 µM
COc1cc2c(cc1OC)-c1cc3ccccc3c(=O)n1CC2	> 100 µM
CC(C)(Oc1ccc(/C=C/C(=O)c2ccc(Cl)cc2)cc1)C(=O)Nc1c(Cl)cccc1Cl	30.5 µM
COC1CC(OC2CCC3(C)C(=CCC4C3C(OC(C)=O)C(OC(=O)CC(C)C)C3(C)C(C(C)=O)CCC43O)C2)OC(C)C1OC1CC(OC)C(OC2CC(OC)C(OC3OC(C)C(OC4OC(CO)C(O)C(O)C4O)C(OC)C3O)C(C)O2)C(C)O1 (configuration not stated)	> 75 µM

Task: TGI lookup needed for Cn1cc(C2=C(c3cn(C4CCN(Cc5ccccn5)CC4)c4ccccc34)C(=O)NC2=O)c2ccccc21 , thanks.
Result: > 100 µM

Task: # query: TGI of entry O=C(O)c1ccc(C2C(=O)N[C@@H]3CCC[C@H]23)cc1 (some centres not stated)
Result: > 100 µM

Task: // query TGI value for entry CN1/C(=C\C=C\C2=[N+](C)c3ccccc3C2(C)C)C(C)(C)c2ccccc21
Result: 7.52 µM

Task: Quick one: TGI of CC(NC(=O)N(C)C)NC(=O)N(C)C ?
Result: > 10 µM

Task: What value of TGI has been recorded for this entry: Cc1c2ccccc2cc2ccc3oc([N+](=O)[O-])cc3c12
Result: > 100 µM

Task: What value of TGI has been reported for the following compound? COc1nc(C#CC(C)(C)C)nc(OC)n1
Result: 37.6 µM

Task: Give the measured TGI of O=c1c2cc(Br)ccc2nc(CCl)n1-c1ccc(O)c([N+](=O)[O-])c1 .
Result: 42.2 µM

Task: Name the recorded TGI for Cc1cc(N(CCC#N)CCC#N)ccc1/C=C(\NC(=O)/C=C/c1ccccc1)C(=O)NN .
Result: > 100 µM

Task: Given the entry N#Cc1nc(NC(=O)c2ccccc2C(=O)O)c(C#N)[nH]1 , report its measured TGI.
Result: > 100 µM

Task: Given the entry CSC1=Nc2ccccc2N=C(c2ccc(Cl)cc2)C1 , report its measured TGI.
Result: > 100 µM

Task: TGI for N#Cc1ccc(NC(=O)C(CC(=O)OCc2ccccc2)NC(=O)OCc2ccccc2)cc1 (configuration not stated) ?
Result: > 100 µM

Task: I am curious: what TGI value has been reported for O=C(N/N=C/c1ccccc1O)c1ccccc1 ?
Result: > 100 µM

Task: // lookup TGI for COc1cc2ccc1OCc1cccc(n1)COc1ccc(cc1OC)C=Nc1ccc(cc1)N=C2
Result: > 100 µM

----------
Measured TGI, listed per entry.
# Test system: SK-MEL-28 melanoma
# experiment.notes: NCI tumour cell line growth inhibition, 48 h

Known TGI results, listed for orientation:
> print(dat)
                                   compound         target.desc  measurement
1            S=c1cc(-c2ccc3c(c2)OCO3)s[nH]1  SK-MEL-28 melanoma     > 100 µM
2  CCCSc1nc(-c2ccc(OC)cc2)c(C#N)c(=O)n1C1OC(COC(C)=O)C(OC(C)=O)C(OC(C)=O)C1OC(C)=O (configuration not stated)  SK-MEL-28 melanoma     > 100 µM

Task: // returns reported TGI for input O=c1[nH]nc(Cc2ccccc2)n1/N=C/c1ccncc1
Result: > 100 µM

Task: Look up TGI for this compound: O=C(/C=C/c1ccccc1)c1ccc(NCc2nc3ccccc3[nH]2)cc1
Result: 32.6 µM

Task: What does the data say about its TGI? Entry: C=C1C(=O)O[C@H]2[C@H]1CC/C(COC(=O)NCC(C)c1ccc(CC(C)C)cc1)=C\CC[C@@]1(C)O[C@@H]21 (some centres not stated)
Result: 5.52 µM

Task: # query: TGI of entry CCCCCCCCCCCCCCCC[N+]1(C)CCOCC1
Result: 7.69 µM

Task: Item CCOP(=O)(/C=C\n1ccc(N)nc1=O)OCC has what recorded TGI?
Result: > 100 µM

Task: Please report the recorded TGI for O=C(O)[C@H](c1ccccc1)[C@@H](C(=O)O)c1ccccc1 .
Result: > 100 µM

Task: Quick one: TGI for CN(C)CC1CCC(CN(C)C)C1=O (configuration not stated) ?
Result: 36.5 µM

----------
# System: NCI-H23 lung
# experiment.notes: NCI tumour cell line growth inhibition, 48 h
measured.quantity: TGI (µM)
Express it in µM; write the number only.

Solved entries (count: 3):
> print(dat)
                                   molecule  measurement
1  O=C(Nc1ccc(Cl)c(Cl)c1)NS(=O)(=O)c1cnccc1Oc1ccc(F)cc1         24.5
2  C=C1c2nc3ccccc3n2C=C(c2ccc(Cl)cc2)N1c1ccc(OC)cc1         22.9
3          C=Cc1ccccc1C1(O)C=CC(OC)(OC)C=C1         16.2

Task: Quick check: TGI of COc1ccc(C(=O)c2ccc([As]=O)cc2)cc1 (stereo not drawn) ?
Result: 0.322

----------
# Test system: RXF 393 renal
# experiment.notes: NCI tumour cell line growth inhibition, 48 h
measured.quantity: TGI (µM)
Numeric only. Scale: µM

compound	measured.quantity	measurement
CCOC(=O)C1SC(=Nc2ccc(Cl)cc2)N=C1C (stereo not given)	TGI	36.3
COc1ccc(NC(=S)NC(=O)c2ccc3c(c2)Sc2ccccc2O3)c([N+](=O)[O-])c1	TGI	75.6
Cc1ccc(C2=CC(=O)/C(=C\C(=O)c3ccc(Cl)cc3)O2)cc1	TGI	18.6
CN1/C(=C\C=C\C2=[N+](C)c3ccccc3C2(C)C)C(C)(C)c2ccccc21	TGI	1.13
O=C1NCN(c2ccccc2)C12CCN(CCCN1CCN(CCOC(c3ccc(F)cc3)c3ccc(F)cc3)CC1)CC2	TGI	2.25

Task: Value lookup for TGI; key = COc1ccc(CN2CCC/C=C/CC(Cl)(Cl)C2=O)cc1
Result: 78.7

Task: Reported TGI for C[C@H]1SC(c2ccc(Cl)cc2Cl)N(NC(=O)c2ccncc2)C1=O (stereo not given in full) : what is it?
Result: 61.2

Task: I have this compound here, COc1cc(/C=C/C=C2\CC/C(=C\C=C\c3ccc(O)c(OC)c3)C2=O)ccc1O , and I need its recorded TGI.
Result: 77.7

Task: Item CCCCN(CCCC)C(=O)/C(CC(=O)c1cccc2ccccc12)=N\NC(=O)c1cc2ccccc2cc1O has what recorded TGI?
Result: 63

Task: Requested read-out: TGI. Entry: CSC(=S)N/N=C/c1nccc2ccccc12
Result: 6.01

Task: Can you look up the measured TGI of O=C(N/N=C/c1ccc(Br)cc1)N/N=C/c1ccc(Br)cc1 for me?
Result: 40.5

Task: Param item = CCOC(=O)/C(C#N)=C\C=C(/Cl)c1ccc(Cl)cc1 ; retrieve measured TGI.
Result: 45.9

Task: Report TGI for Cc1ccc(NC(=O)c2cc(S(=O)(=O)N3C(=O)NC(=O)NS3(=O)=O)c(S)cc2Cl)cc1 please.
Result: 54.5

----------
# Test system: SNB-75 CNS
# experiment.notes: NCI tumour cell line growth inhibition, 48 h
The following compounds are listed with their measured TGI values.

Some solved cases for reference:
> print(dat)
                              smiles.record  measured.quantity  measurement
1                         CCOC(=O)c1nnsc1NN                TGI     > 100 µM
2  O=S(=O)(NCCCNc1nccc(-c2c(-c3ccc(F)cc3)nc3sccn23)n1)c1ccc2ccccc2c1                TGI     > 100 µM

Task: Find the recorded TGI belonging to CSC(=NCCc1c[nH]c2ccccc12)NC#N and report it.
Result: > 100 µM

Task: Quick one: TGI for CCCCn1c(-c2ccc(C(=O)O/N=C(\N)c3ccc4c(c3)OCO4)cc2)nc(-c2ccccc2)c1-c1ccccc1 ?
Result: 3.88 µM

Task: // query TGI value for entry O=c1c2cc(Br)ccc2nc(CCl)n1-c1ccc(O)c([N+](=O)[O-])c1
Result: 44 µM

Task: Can you look up the measured TGI of COC(=O)C1=Nc2c(C)nn(-c3ccccc3)c2N=C(c2ccccc2)C1 for me?
Result: > 10 µM

Task: Which measured TGI value corresponds to COc1cc(NCCCCCCCNC(C)C)c2nccc(C)c2c1 ?
Result: 24.3 µM
